Values compiled from patent US7030245B2.

Recorded pKi values for a group of molecules are listed next.
Biological target: human 5-HT1A receptors (Homo sapiens, UniProt P08908)
Sequence (P08908 whole entry): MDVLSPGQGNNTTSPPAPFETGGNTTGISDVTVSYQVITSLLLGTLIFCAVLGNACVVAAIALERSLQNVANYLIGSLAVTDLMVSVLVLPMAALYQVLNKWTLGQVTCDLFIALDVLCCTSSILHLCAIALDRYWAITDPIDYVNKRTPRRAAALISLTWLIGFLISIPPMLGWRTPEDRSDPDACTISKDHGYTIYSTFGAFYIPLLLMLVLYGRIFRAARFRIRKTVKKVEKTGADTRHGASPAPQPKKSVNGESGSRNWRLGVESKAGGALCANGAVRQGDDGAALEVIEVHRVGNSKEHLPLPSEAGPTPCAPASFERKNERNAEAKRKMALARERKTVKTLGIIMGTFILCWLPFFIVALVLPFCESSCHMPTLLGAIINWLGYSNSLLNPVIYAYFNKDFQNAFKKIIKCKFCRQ
Reminder that pKi is minus the log10 of a molar concentration.

# annotated cases, reported pKi shown
| Molecule | pKi |
| --- | --- |
| Fc1ccc2[nH]cc(C3=CCN(C[C@@H]4CCc5ccc6ncccc6c5O4)CC3)c2c1 [Example 2] | 7.05 |
| Fc1ccc2[nH]cc(C3=CCN(C[C@H]4CCc5ccc6ncccc6c5O4)CC3)c2c1 [Example 3] | 7.08 |

Now for the molecule whose pKi we want.
### Prompt Provide measured pKi on human 5-HT1A receptors (Homo sapiens, UniProt P08908) for Fc1ccc2[nH]cc(C3=CCN(CC4CCc5ccc6ncccc6c5O4)CC3)c2c1 (stereo not drawn) [Example 1] please.
### Response 7.22
